meta.source: patent US20250019439A1

Hi there, I'd appreciate the recorded pKd for every entry that follows.
Molecular target: T1, ADI-76358
T1 construct: anti-CD3 antibody made in CHO cells, captured by anti-human Fc
T1 sequence (VH, as listed by the source, chain 1 of 2): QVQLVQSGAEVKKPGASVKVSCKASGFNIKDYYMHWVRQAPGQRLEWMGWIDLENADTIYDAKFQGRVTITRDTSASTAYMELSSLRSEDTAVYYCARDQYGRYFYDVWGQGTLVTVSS
T1 sequence (VL, as listed by the source, chain 2 of 2): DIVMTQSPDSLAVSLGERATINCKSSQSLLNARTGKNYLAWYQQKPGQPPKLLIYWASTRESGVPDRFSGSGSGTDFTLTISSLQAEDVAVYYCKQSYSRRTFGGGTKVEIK
Experiment: SPR Carterra avidity, yeast anti-ID
Numbers only, as −log10 of the molar value.

Solved cases below.
[
  {
    "BINDER": "ADI-30242 (antibody, V domains shown, anti-ID IgG) VH: QVQLVQSGAEVKKPGSSVKVSCKASGGTFSSYAISWVRQAPGQGLEWMGGIIPIFGTANYAQKFQGRVTITADESTSTAYMELSSLRSEDTAVYYCARGAPNYYGSGGYDDGWFDPWGQGTLVTVSS VL: EIVLTQSPGTLSLSPGERATLSCRASQSVSSSYLAWYQQKPGQAPRLLIYGASSRATGIPDRFSGSGSGTDFTLTISRLEPEDFAVYYCQQFGRDPTFGGGTKVEIK",
    "pKd": 7.38
  },
  {
    "BINDER": "ADI-34137 (antibody, V domains shown, anti-ID IgG) VH: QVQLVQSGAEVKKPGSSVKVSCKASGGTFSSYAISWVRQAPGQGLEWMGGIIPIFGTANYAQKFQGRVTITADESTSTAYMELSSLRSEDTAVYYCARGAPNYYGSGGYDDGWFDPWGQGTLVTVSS VL: EIVLTQSPGTLSLSPGERATLSCRASQSVSSSYLAWYQQKPGQAPRLLIYGASSRATGIPDRFSGSGSGTDFTLTISRLEPEDFAVYYCQQFGRFPTFGGGTKVEIK",
    "pKd": 9.02
  }
]

Each of the following entries comes with a recorded value; kindly state pKd for each.
1. ADI-34135 (antibody, V domains shown, anti-ID IgG) VH: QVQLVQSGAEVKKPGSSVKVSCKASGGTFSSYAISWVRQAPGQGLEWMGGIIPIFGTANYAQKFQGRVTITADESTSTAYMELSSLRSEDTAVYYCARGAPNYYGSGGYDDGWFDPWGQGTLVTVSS VL: EIVMTQSPGTLSLSPGERATLSCRASQSVSSSYLAWYQQKPGQAPRLLIYGASSRATGIPDRFSGSGSGTDFTLTISRLEPEDFAVYYCQQFGRYPTFGGGTKVEIK
2. ADI-34138 (antibody, V domains shown, anti-ID IgG) VH: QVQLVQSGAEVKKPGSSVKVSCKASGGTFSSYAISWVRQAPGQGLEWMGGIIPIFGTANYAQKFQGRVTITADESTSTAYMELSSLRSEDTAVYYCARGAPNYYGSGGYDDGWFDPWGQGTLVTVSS VL: EIVMTQSPGTLSLSPGERATLSCRASQSVSSSYLAWYQQKPGQAPRLLIYGASNRATGIPDRFSGSGSGTDFTLTISRLEPEDFAVYYCQQAHTALWTFGGGTKVEIK

Result:
[8.96, 7.54]
